These entries and their values trace back to patent US20220323383A1.

Kindly supply the reported Potentiation factor values for the records listed here.
- Test system: P. aeruginosa R590
- Run description: Chequerboard combination efficacy of adjuvant with antibiotics
- Format: cell-based
- Test context: antibiotic Tetracycline; P. aeruginosa R590

| Compound | Endpoint name | Result |
| --- | --- | --- |
| NCCCC[C@H](N)C(=O)NCCCN(CCCNC(=O)[C@@H](N)CCCCN)CC(=O)NC1C2CC3CC(C2)CC1C3.O=C(O)C(F)(F)F.O=C(O)C(F)(F)F.O=C(O)C(F)(F)F.O=C(O)C(F)(F)F.O=C(O)C(F)(F)F (stereo partly drawn) | Potentiation factor | 16 |

I need Potentiation factor for every entry listed below, if you could help.
1. NCCCN(CCCN)C(=O)CC(c1ccccc1)c1ccccc1.O=C(O)C(F)(F)F.O=C(O)C(F)(F)F
2. NCCCCCCN(CCCCCCN)C(=O)Cc1cccc2ccccc12
3. NCCCC[C@H](N)C(=O)NCCCCCCN(CCCCCCNC(=O)[C@@H](N)CCCCN)CC(=O)NC1C2CC3CC(C2)CC1C3 (stereo partly drawn)
4. NCCCCCCN(CCCCCCN)CC(=O)NC1C2CC3CC(C2)CC1C3.O=C(O)C(F)(F)F.O=C(O)C(F)(F)F.O=C(O)C(F)(F)F (stereo not drawn)

stdout:
[4, 8, 128, 4]

stdin: Using the record for NCCCCCCN(CCCCCCN)C(=O)CC(c1ccccc1)c1ccccc1.O=C(O)C(F)(F)F.O=C(O)C(F)(F)F , report its Potentiation factor.
stdout: 8
